- target-entity: UniProt:J9VVA4
- Sequence (J9VVA4 1-699): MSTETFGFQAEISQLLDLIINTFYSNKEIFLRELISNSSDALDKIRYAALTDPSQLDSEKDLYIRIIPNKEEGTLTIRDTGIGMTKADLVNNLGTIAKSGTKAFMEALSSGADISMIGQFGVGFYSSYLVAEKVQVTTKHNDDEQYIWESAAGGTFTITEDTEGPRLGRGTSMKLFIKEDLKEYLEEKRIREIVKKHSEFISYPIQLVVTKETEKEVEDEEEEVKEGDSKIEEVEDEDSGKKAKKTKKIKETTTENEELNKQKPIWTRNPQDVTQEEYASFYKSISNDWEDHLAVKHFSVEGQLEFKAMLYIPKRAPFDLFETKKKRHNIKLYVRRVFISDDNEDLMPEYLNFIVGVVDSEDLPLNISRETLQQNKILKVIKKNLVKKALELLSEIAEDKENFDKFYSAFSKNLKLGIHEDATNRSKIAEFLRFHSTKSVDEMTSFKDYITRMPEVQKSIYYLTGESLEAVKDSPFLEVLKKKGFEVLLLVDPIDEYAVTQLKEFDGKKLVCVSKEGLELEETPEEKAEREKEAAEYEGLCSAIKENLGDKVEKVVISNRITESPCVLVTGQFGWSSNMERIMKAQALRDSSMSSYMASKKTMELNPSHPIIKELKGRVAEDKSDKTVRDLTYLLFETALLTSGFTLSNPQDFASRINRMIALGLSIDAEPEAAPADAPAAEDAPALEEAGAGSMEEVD
Kd reference
value-kind: Kd (nM)

* Cn1nc(-c2ccc(OC(F)(F)F)cc2)cc1Nc1cc(O)cc(O)c1C(=O)N1Cc2cccnc2C1 | 380
* COc1cccc(-c2cc(Nc3cc(O)cc(O)c3C(=O)N3Cc4cn[nH]c4C3)n(C)n2)c1 | 22
* Cn1nc(-c2ccc(OC(F)(F)F)cc2)cc1Nc1cc(O)cc(O)c1C(=O)N1Cc2cn[nH]c2C1 | 214
* Cn1nc(-c2ccc(OC(F)(F)F)cc2)cc1Nc1cc(O)cc(O)c1C(=O)N1Cc2ccccc2C1 | 7
* COc1cccc(-c2cc(Nc3cc(O)cc(O)c3C(=O)N3Cc4cccnc4C3)n(C)n2)c1 | 67
* COc1cccc(-c2cc(Nc3cc(O)cc(O)c3C(=O)N3Cc4ccccc4C3)n(C)n2)c1 | 74
* C[C@@H]1C[C@H]2O[C@@H]2/C=C\C=C\C(=O)Cc2c(Cl)c(O)cc(O)c2C(=O)O1 | 2
